Some compounds, each annotated with its measured DC50.
# Experimental target: CK1α (Homo sapiens)
# Construct: HEK293 clonal lines with CRISPR KI HiBiT tag on CSNK1A1
# Sequence (P48729 whole entry): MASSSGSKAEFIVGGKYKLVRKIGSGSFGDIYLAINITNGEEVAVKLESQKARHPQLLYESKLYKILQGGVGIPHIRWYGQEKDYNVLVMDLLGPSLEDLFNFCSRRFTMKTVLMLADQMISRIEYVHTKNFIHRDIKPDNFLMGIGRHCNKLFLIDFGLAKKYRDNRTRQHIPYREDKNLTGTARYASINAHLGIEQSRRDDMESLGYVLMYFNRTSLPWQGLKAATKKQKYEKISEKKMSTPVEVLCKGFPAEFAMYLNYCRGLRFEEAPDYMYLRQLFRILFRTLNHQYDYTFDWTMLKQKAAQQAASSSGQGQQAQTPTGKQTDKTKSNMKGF
# Sequence (Q96SW2 whole entry, further chain): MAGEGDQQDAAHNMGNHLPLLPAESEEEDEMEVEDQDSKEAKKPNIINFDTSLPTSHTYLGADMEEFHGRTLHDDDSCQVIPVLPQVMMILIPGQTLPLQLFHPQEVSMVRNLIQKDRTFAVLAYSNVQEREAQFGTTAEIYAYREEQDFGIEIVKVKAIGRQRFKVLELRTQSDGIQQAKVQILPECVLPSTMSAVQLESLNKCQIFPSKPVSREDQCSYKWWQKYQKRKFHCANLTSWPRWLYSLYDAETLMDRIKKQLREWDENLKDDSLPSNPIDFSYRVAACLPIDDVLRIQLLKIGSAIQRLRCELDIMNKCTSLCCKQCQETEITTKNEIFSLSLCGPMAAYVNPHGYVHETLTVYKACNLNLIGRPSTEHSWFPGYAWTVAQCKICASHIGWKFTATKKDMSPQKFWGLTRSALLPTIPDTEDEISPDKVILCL
# Sequence (Q16531 2-1140 partner limits assumed): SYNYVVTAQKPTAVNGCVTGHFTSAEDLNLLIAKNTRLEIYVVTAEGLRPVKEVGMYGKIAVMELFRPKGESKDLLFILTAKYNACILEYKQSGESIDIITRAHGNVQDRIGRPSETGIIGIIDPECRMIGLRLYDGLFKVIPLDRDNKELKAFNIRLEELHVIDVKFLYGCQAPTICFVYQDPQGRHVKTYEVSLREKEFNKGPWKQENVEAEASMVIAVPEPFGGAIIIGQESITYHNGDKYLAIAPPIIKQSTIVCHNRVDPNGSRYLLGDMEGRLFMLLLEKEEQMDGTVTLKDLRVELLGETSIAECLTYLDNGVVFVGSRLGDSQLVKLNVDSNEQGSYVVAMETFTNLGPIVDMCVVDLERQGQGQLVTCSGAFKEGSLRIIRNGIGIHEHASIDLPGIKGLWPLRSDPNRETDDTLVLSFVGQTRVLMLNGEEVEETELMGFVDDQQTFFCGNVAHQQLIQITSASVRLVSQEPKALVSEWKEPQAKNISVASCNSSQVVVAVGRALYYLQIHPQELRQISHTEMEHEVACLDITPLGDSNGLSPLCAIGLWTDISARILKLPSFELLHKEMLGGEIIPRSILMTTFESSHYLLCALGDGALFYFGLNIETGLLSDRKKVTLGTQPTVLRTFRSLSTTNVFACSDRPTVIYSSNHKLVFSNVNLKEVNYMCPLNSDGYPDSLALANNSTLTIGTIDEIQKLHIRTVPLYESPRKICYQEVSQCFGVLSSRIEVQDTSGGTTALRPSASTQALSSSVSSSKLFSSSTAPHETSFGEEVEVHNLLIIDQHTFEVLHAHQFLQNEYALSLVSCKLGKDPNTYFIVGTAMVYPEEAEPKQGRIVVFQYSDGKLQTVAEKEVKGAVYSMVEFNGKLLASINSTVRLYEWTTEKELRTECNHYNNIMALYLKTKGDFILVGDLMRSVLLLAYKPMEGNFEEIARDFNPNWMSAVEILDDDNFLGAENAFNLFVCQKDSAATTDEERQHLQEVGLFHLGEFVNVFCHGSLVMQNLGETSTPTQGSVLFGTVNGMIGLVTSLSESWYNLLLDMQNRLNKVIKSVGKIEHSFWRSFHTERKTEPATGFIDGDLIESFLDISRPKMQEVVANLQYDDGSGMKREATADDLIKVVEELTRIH
# Assay name: CK1α NanoBit Assay (HiBiT-tagged CSNK1A1, HEK293 clonal lines)
# Format: cell-based
# Protocol conditions: HEK293 HiBiT-CSNK1A1/LgBiT cells, 24 h incubation

Worked cases, answers included:
* CC1CN(c2ccccc2)CCN1C(=O)Nc1ccc2c(c1)CN(C1CCC(=O)NC1=O)C2=O (stereo not shown) | 0.1 to 1 µM
* O=C1CCC(N2Cc3cc(NC(=O)N4CCc5ccc(C6CCOC6)cc54)ccc3C2=O)C(=O)N1 (stereo not shown) | 0.1 to 1 µM
* O=C1CCC(N2Cc3cc(NC(=O)N4CC5(CC5)c5ccccc54)ccc3C2=O)C(=O)N1 (stereo not shown) | < 0.1 µM

Next, consider the following compound.
Exercise: What measured DC50 is associated with O=C1CCC(N2Cc3cc(NC(=O)N4CC5(CCC5)c5ccccc54)ccc3C2=O)C(=O)N1 (stereo not shown) on CK1α (Homo sapiens)?
Solution: < 0.1 µM

---

# Experimental target: CK1α (Homo sapiens)
# Construct: HEK293 clonal lines with CRISPR KI HiBiT tag on CSNK1A1
# Assay name: CK1α NanoBit Assay (HiBiT-tagged CSNK1A1, HEK293 clonal lines)
# Type: cell-based
# Protocol conditions: HEK293 HiBiT-CSNK1A1/LgBiT cells, 24 h incubation
Attribute measured: DC50

- O=C1CCC(N2Cc3cc(NC(=O)N4CCc5cnccc54)ccc3C2=O)C(=O)N1 (centres unmarked): 0.1 to 1 µM
- CCC1c2ccccc2CN1C(=O)Nc1ccc2c(c1)CN(C1CCC(=O)NC1=O)C2=O (centres unmarked): < 0.1 µM
- CCC1(c2ccccc2)CN(C(=O)Nc2ccc3c(c2)CN(C2CCC(=O)NC2=O)C3=O)C1 (centres unmarked): 0.1 to 1 µM
- O=C1CCC(N2Cc3cc(NC(=O)N4CCN(c5ccncn5)CC4)ccc3C2=O)C(=O)N1 (centres unmarked): > 1 µM
- CN1CCN(C(=O)Nc2ccc3c(c2)CN(C2CCC(=O)NC2=O)C3=O)c2ccccc21 (centres unmarked): 0.1 to 1 µM

Exercise: // DC50 lookup, key: COC[C@H]1Cc2ccccc2N1C(=O)Nc1ccc2c(c1)CN(C1CCC(=O)NC1=O)C2=O (some centres unmarked)
Solution: < 0.1 µM

Exercise: Give the measured DC50 of COC[C@@H]1Cc2c(F)cccc2N1C(=O)Nc1ccc2c(c1)CN(C1CCC(=O)NC1=O)C2=O (some centres unmarked) .
Solution: < 0.1 µM

Exercise: Name the recorded DC50 for O=C1CCC(N2Cc3cc(NC(=O)N4CCCCC4c4ccccc4)ccc3C2=O)C(=O)N1 (centres unmarked) .
Solution: < 0.1 µM
